// data source = PubChem BioAssay (NCATS)

RUN_DESCRIPTION: BET inhibitor-based combinations targeting novel dependencies in MECOM-rearranged (r) AML: AML-194 cell line (AID 2202237; note: nearly all actives have a fitted effect of over 40% in size)
PARTICULARS: AML-194 (MECOM-r AML) viability, CellTiter-Glo, 48 h; series mostly up to 46 µM
Inconclusive results are not listed. Activity calls are given as the source filed them. Calls come from the whole dose curve; as a rule, active = well fitted inhibition curve with a large enough effect; inconclusive = small, poorly fitted or top-dose-only effect; inactive = flat fitted curve, though single readings scatter.
Outcome codes: 1.0 (active), 0.0 (inactive)

>>> class_name("Cc1ccc(NC(=O)NCc2ccc3c(c2)CN(C2CCC(=O)NC2=O)C3=O)cc1Cl (stereo not given)")
1.0
>>> class_name("Cn1c(NC[C@@H](N)Cc2ccccc2)nc(-c2ccncc2)c(-c2ccc3ccccc3c2)c1=O")
1.0
>>> class_name("Clc1ccc(CCC(Cn2ccnc2)Sc2c(Cl)cccc2Cl)cc1 (stereo not given)")
0.0
>>> class_name("c1ccc(-c2cc(CCC3CCNCC3)c3ccccc3n2)cc1")
1.0
>>> class_name("Cc1cc(I)ccc1Nc1c(C(=O)NOCC2CC2)cc(F)c(F)c1F")
1.0
>>> class_name("COC(C)(C)CCn1nc(Nc2c(C)cccc2C)c2cnc(Nc3ccc(OCCN4CCCC4)c(F)c3)nc21")
1.0
>>> class_name("COc1ccc2c(c1)CC[C@@H]1[C@@H]2CC[C@]2(C)[C@@H](NCCCCCCN3C(=O)C=CC3=O)CC[C@@H]12")
0.0
>>> class_name("CCO[C@@H]1OC(=O)C[C@@H]1NC(=O)[C@@H]1CCCN2C(=O)CC[C@H](NC(=O)c3nccc4ccccc34)C(=O)N12")
0.0
>>> class_name("NC[C@@](O)(c1ccc(Cl)cc1)c1ccc(-c2cn[nH]c2)cc1")
1.0
>>> class_name("CC(/C=C/C(=O)NO)=C\\[C@@H](C)C(=O)c1ccc(N(C)C)cc1")
1.0
>>> class_name("[2H]C([2H])(Nc1nc(-c2ccccc2C([2H])(C([2H])([2H])[2H])C([2H])([2H])[2H])ncc1C)c1ccc(-n2ccnn2)cc1")
0.0
>>> class_name("Cc1cnc(NC(=O)c2cc(Oc3cnc(C(=O)N(C)C)nc3)c3cc(C)oc3c2)cn1")
0.0
>>> class_name("CCOC(=N)c1nc2ccc3ncnc(Nc4cc(F)c(F)cc4Cl)c3c2s1")
1.0
>>> class_name("Cn1c(-c2ccccc2C(F)(F)F)nnc1C12CCC(c3noc(C4CC(F)(F)C4)n3)(CC1)CC2")
0.0
>>> class_name("C=CC(=O)Nc1cccc(Oc2nc(Nc3ccc(N4CCN(C)CC4)cc3)nc3ccsc23)c1")
1.0
>>> class_name("COc1nc(OCc2cccc(-c3ccccc3)c2C)ccc1CNCCNC(C)=O")
1.0
>>> class_name("COC1=C(OC)C(=O)C(C/C=C(\\C)CC/C=C(\\C)CC/C=C(\\C)CC/C=C(/C)CC/C=C(\\C)CC/C=C(\\C)CC/C=C(\\C)CC/C=C(\\C)CC/C=C(\\C)CCC=C(C)C)=C(C)C1=O")
0.0
>>> class_name("Cc1ccc(-c2ncn(-c3ccc(Nc4nccc(-c5cccc(N6CCOCC6)c5)n4)cc3)n2)cn1")
1.0
>>> class_name("Cc1c(C(=O)Nc2ccc(Oc3ccnc4[nH]cc(-c5ccccc5)c34)c(F)c2)c(=O)n(-c2ccc(F)cc2)n1C")
1.0
>>> class_name("N[C@@H]1CN(c2c(F)cc3c(=O)c(C(=O)O)cn([C@@H]4C[C@@H]4F)c3c2Cl)CC12CC2")
0.0
>>> class_name("CC1(C)CC[C@]2(C(=O)O)CC[C@]3(C)C(=CC[C@@H]4[C@@]5(C)C[C@@H](O)[C@H](O)C(C)(C)[C@@H]5CC[C@]43C)[C@@H]2C1")
0.0
>>> class_name("COc1ccc(C(=O)N2CCN(C(=O)/C=C/c3ccc(Br)cc3)CC2)cc1")
0.0
>>> class_name("C=CC(=O)N[C@H]1CCOC[C@H]1Nc1ncc2cc(-c3c(Cl)c(OC)cc(OC)c3Cl)ccc2n1")
0.0
>>> class_name("C[C@H](NC(=O)[C@H]1NCC[C@@H]1O)c1ccc(-c2noc(CCC3CCCC3)n2)cc1")
0.0
>>> class_name("C=C[C@@H]1CN2CCC1C[C@H]2[C@H](O)c1ccnc2ccc(OC)cc12 (stereo not given in full)")
0.0
>>> class_name("Cc1nc2cccc(N)c2c(=O)n1C1CCC(=O)NC1=O (stereo not given)")
0.0
>>> class_name("CCCCC(=O)OCC(=O)[C@]1(O)Cc2c(O)c3c(c(O)c2[C@@H](O[C@H]2C[C@H](NC(=O)C(F)(F)F)[C@H](O)[C@H](C)O2)C1)C(=O)c1c(OC)cccc1C3=O")
1.0
>>> class_name("Nc1nc(F)nc2c1ncn2[C@@H]1O[C@H](COP(=O)(O)O)[C@@H](O)[C@@H]1O")
1.0
>>> class_name("C=CC(=O)Nc1ccc2ncnc(Nc3cccc(Br)c3)c2c1")
1.0
>>> class_name("CC/C(=C(/c1ccc(/C=C/C(=O)O)cc1)c1ccc2[nH]ncc2c1)c1ccc(F)cc1Cl")
0.0
>>> class_name("C=CC(=O)Nc1ccc2ncnc(Nc3ccc(OCc4cccc(F)c4)c(Cl)c3)c2c1")
1.0
>>> class_name("COc1ccc(S(=O)(=O)NCc2ccc(C(=O)NCCc3ccc(Cl)cn3)cc2)cc1")
0.0
>>> class_name("CC[C@@]1(O)C(=O)OCc2c1cc1n(c2=O)Cc2c-1nc1ccccc1c2CCNC(C)C")
1.0
>>> class_name("Cc1ccc([C@@H]2O[C@H](CO)[C@@H](O)[C@H](O)[C@H]2O)cc1Cc1ccc(-c2ccc(F)cc2)s1")
0.0
>>> class_name("COC(=O)[C@H](CCCN=C(N)N)NS(=O)(=O)c1ccc(C)cc1")
0.0

---

ASSAYED_TARGET: Retinal dehydrogenase 2 (Homo sapiens) (UniProt O94788)
RUN_DESCRIPTION: qHTS for Inhibitors of the Aldehyde Dehydrogenase Family (ALDH1A2) Confirmation screens (AID 2061314); note: nearly all actives have a fitted effect of over 65% in size
PARTICULARS: ALDH1A2 enzyme inhibition qHTS confirmation; series mostly up to 45.9 µM
Records with an inconclusive call do not appear. Active and inactive are the calls of the source. Calls follow the shape of the dose curve; as a rule, active = well fitted inhibition curve with a large enough effect; inconclusive = small, poorly fitted or top-dose-only effect; inactive = no such curve, though single readings can be large or run the other way.
Outcome codes: T for active, F for inactive

>>> class_name("CC(C)OCCCn1c(SCc2ccccc2Cl)nc2c(sc3ccccc32)c1=O")
"F"
>>> class_name("CO[C@H]1c2cc(C(C)C)c(O)c(O)c2[C@@]23CCCC(C)(C)C2[C@@H]1OC3=O (stereo partly specified)")
"T"
>>> class_name("O=C(NCc1ccccc1)C1CCN(c2nc(-c3ccc(Br)cc3)cs2)CC1")
"F"
>>> class_name("Cc1ccccc1NC(=O)CSc1nc2ccccc2c2nc(CCn3cncc3C)nn12")
"F"
>>> class_name("COc1ccc(-c2nc3ccccc3c(=O)n2Cc2ccccc2)cc1CNc1ccc(NC(C)=O)cc1")
"T"
>>> class_name("Nc1cccc(CNc2ccc(S(=O)(=O)Nc3nccs3)cc2)c1O")
"F"
>>> class_name("O=C(C(NS(=O)(=O)c1ccc2[nH]c(=O)ccc2c1)c1cccc(C(F)(F)F)c1)N(Cc1ccco1)Cc1cccs1 (stereo unspecified)")
"T"
>>> class_name("COc1ccc(S(=O)(=O)NCC(c2ccco2)N2CCOCC2)cc1C (stereo unspecified)")
"F"
>>> class_name("CCC(=O)N(C1CCOCC1)C1CCN(S(=O)(=O)c2ccc(C(F)(F)F)cc2)CC1")
"F"
>>> class_name("CC(=O)NC(C)c1cc(Cl)c2ccccc2c1O (stereo unspecified)")
"T"
>>> class_name("COC(=O)c1ccc(NC(=O)CN2CCN(c3ccc(Cl)cc3)CC2)cc1")
"T"
>>> class_name("CCn1cc(C(=O)N(C)c2cc(C)ccc2C)c2cc(OC)c(OC)cc2c1=O")
"F"
>>> class_name("CN(C)C(=O)c1ccc(-c2cc[nH]c(=O)c2N)cc1")
"T"
>>> class_name("CCOc1ccc(CCNC(=O)c2ccc(N3N=C(C)CC3=O)cc2)cc1OCC")
"T"
>>> class_name("CCN(C(=O)c1sc2nc3n(c(=O)c2c1C)CCCCC3)c1ccccc1F")
"F"
>>> class_name("CCOc1ccc(C(=O)N(Cc2ccc(C(C)C)cc2)Cc2ccco2)cc1")
"F"
>>> class_name("Cc1ccc2cccc(NC(=O)COc3ccccc3[N+](=O)[O-])c2n1")
"F"
>>> class_name("Oc1cc(-c2cccnc2)cc2cccnc12")
"F"
>>> class_name("O=C1COCCN1C1CCN(S(=O)(=O)c2cccc(C(F)(F)F)c2)CC1")
"F"
>>> class_name("O=C(Nc1sc2c(c1-c1nc3ccccc3s1)CCNC2)C(F)(F)F")
"T"
>>> class_name("O=C(Cc1ccc(F)cc1)Nc1cccc(-c2nc3cccnc3s2)c1")
"F"

---

RUN_DESCRIPTION: BET inhibitor-based combinations targeting novel dependencies in MECOM-rearranged (r) AML: MV-4-11 cell line (AID 2202233); note: nearly all actives have a fitted effect of over 45% in size; note: potency is the fitted concentration of half-maximal effect
PARTICULARS: MV-4-11 AML viability, CellTiter-Glo luminescence, 48 h; series mostly up to 46 µM
Results filed as inconclusive are left out. Active and inactive are the calls of the source. Calls follow the shape of the dose curve; as a rule, active = well fitted inhibition curve with a large enough effect; inconclusive = small, poorly fitted or top-dose-only effect; inactive = no such curve, though single readings can be large or run the other way.
READOUT_TYPE: Potency

>>> recorded_value("C[C@@H]1COC(Nc2ccc3ncnc(Nc4ccc(OCc5nccs5)c(Cl)c4)c3c2)=N1")
"18.6 µM (active)"
>>> recorded_value("Cc1nc2ccc(CN(C)c3ccc(C(=O)N[C@@H](CCC(=O)O)C(=O)O)s3)cc2c(=O)[nH]1")
"0.0468 µM (active)"
>>> recorded_value("Cc1ncc(NC(=O)c2cccc(C(F)(F)F)c2)cc1-c1cnc(OC2CCOCC2)c(N2CCOCC2)c1")
"16.6 µM (active)"
>>> recorded_value("CCCCNc1ncc2c(-c3ccc(F)cc3)nn(CC3CCC(N)CC3)c2n1 (stereo not given)")
"0.129 µM (active)"
>>> recorded_value("C=C1C(=O)O[C@H]2C[C@H](C)C(/C=C/C(C)=O)=CC[C@H]12")
"1.86 µM (active)"
>>> recorded_value("N#Cc1c(N(CC(=O)O)CC(=O)O)sc(C(=O)O)c1CC(=O)O")
"inactive"
>>> recorded_value("COc1ccc(S(=O)(=O)N2CCc3cccc(-c4ccncc4)c32)cc1")
"1.18 µM (active)"
>>> recorded_value("Nc1[nH]nc2nnc(-c3c(-c4ccccc4)nn4ccccc34)cc12")
"10.5 µM (active)"
>>> recorded_value("O=S(=O)(Nc1ccc(-c2cccnc2)c2cccnc12)c1cccc(C(F)(F)F)c1")
"7.42 µM (active)"
>>> recorded_value("CC1(C)OC2=C(C(=O)c3ccccc3C2=O)[C@H](NCc2ccccc2)[C@@H]1O")
"8.33 µM (active)"
>>> recorded_value("CCN1CCN(Cc2ccc(-c3cc4c(N[C@H](C)c5ccccc5)ncnc4[nH]3)cc2)CC1")
"2.63 µM (active)"
>>> recorded_value("Cc1cnc(NC(=O)c2cc(Oc3cnc(C(=O)N(C)C)nc3)c3cc(C)oc3c2)cn1")
"inactive"
>>> recorded_value("O=C(CO)N1CCC(c2[nH]nc(-c3ccc(Cl)cc3)c2-c2ccncn2)CC1")
"inactive"
>>> recorded_value("CCCC[C@@H](C=O)NC(=O)[C@H](CC(C)C)NC(=O)OCc1ccccc1")
"18.6 µM (active)"
>>> recorded_value("Cn1ncc(Cl)c1-c1cc(C(=O)NC(CN)Cc2ccc(F)c(F)c2)oc1Cl (stereo not given)")
"11.8 µM (active)"
